Biological target: T1, ITGA6-Fc
T1 construct: Fc fusion
T1 sequence (P23229 whole entry, species assumed, looked up): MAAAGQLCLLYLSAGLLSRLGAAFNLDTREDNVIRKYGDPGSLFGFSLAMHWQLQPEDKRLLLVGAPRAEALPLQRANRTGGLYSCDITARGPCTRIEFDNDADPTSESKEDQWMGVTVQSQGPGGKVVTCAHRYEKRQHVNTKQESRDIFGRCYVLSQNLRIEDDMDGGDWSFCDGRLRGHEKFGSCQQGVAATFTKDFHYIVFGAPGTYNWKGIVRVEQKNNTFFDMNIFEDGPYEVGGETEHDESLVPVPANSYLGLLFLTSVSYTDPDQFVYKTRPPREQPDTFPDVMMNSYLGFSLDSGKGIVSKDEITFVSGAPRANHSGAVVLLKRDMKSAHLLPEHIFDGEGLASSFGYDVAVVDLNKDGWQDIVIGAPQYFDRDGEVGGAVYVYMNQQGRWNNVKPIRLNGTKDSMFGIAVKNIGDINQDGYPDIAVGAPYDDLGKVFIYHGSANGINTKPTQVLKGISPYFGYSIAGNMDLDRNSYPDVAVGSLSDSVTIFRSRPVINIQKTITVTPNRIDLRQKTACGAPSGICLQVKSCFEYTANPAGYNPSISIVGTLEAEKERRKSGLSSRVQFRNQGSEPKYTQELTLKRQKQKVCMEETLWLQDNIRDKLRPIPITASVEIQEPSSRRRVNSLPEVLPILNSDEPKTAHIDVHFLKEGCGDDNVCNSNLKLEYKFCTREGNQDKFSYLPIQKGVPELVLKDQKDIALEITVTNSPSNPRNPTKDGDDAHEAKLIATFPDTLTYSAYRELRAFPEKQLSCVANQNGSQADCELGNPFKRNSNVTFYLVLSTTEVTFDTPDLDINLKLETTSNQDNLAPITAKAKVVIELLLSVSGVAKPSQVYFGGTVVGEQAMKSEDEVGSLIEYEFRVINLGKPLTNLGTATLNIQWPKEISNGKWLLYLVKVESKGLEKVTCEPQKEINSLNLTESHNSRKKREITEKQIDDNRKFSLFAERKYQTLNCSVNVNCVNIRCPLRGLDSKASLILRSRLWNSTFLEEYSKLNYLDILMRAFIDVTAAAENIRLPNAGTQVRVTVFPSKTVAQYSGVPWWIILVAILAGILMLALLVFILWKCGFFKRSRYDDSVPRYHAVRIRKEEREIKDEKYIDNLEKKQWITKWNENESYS
Test: scFv-phage ELISA

- binder: "PD1-49B9 (antibody, V domains shown, scFv-phage in the screening ELISA; later whole IgG) VH: QMQLVESGGGLVQPGRSLRLSCAASGFTFEDYAMHWVRQPPGKGLEWVSSISWNSHNIAYADSVKGRFTISRDNSKNSLYLQMNSLRAEDTAVYYCSTSGLGVHAWGQGTMVTVSS VL: QSALTQPPSASGSPGQSVTISCTGTSSDVGGYNYVSWYQQHPGKAPKLMIYEVSKRPSGVPDRFSGSKSGNTASLTVSGLQPEDEADYYCSSFARNSNYVFGTGTKVTVL"
  OD490: 0.3
- binder: "PD1-49A2 (antibody, V domains shown, scFv-phage in the screening ELISA; whole IgG in the other assays; also called Parent 49A2) VH: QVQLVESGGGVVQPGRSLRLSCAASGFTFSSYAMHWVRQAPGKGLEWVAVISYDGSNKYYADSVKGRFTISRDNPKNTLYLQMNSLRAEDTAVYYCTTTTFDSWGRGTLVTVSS VL: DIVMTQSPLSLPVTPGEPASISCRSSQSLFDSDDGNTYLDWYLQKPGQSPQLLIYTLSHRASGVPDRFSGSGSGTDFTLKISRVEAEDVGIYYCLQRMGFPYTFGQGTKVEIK"
  OD490: 0.2
- binder: "PD1-48A9 (antibody, V domains shown, scFv-phage in the screening ELISA; whole IgG in the other assays) VH: QMQLVQSGAEVKKPGSSVKVSCKASGDTFTRYIINWVRQAPGQGLEWMGRVIPTLGLTTYAQNFQDTVTIIADKSTNTAYMELKNLRSEDTAVYYCARGYGSGAFDIWGQGTMITVSS VL: DIVMTQTPLSLPVTPGEPASISCRSSQSLLDSHDGNTYLDWYLQKPGQSPQLLIYTLSHRASGVPDRFSGSGSGTDFTLKISRVEAEDVGLYYCMQRIDFPYTFGQGTKVEIK"
  OD490: 0.3
